# Assay Name: Microsomal stability, mouse liver microsomes (Table 1)
# Format: in vitro ADME, Mouse: CD1
# Condition Info: CD1, mouse, liver microsomes, Mouse: CD1; read-out: Microsomal Stability t1/2
Readout Name: half-life

| Molecule | Measured Result |
| --- | --- |
| CC(C)(C)OC(=O)c1cc(N)c(NC23CC4CC(CC(C4)C2)C3)cc1Cl [CFI-A3] | 16.2 to 16.6 min |
| CC(C)(C)OC(=O)c1ccc(NC2CCCCC2)c(NC23CC4CC(CC(C4)C2)C3)c1 [CFI-L034] | > 120 min |
| Cc1noc(-c2cnc(NC3CCCCC3)c(NC3CCCCC3)c2)n1 [CFI-102] | 30 to 60 min |
| Cc1noc(-c2ccc(NC34CC5CC(CC(C5)C3)C4)c(N)c2)n1 [CFI-4066] | 30.2 to 32.4 min |
| COc1cnc(NC2CCCCC2)c(NC2CCCCC2)c1 [TH-2-9-1] | 7.7 min |
| Cc1noc(-c2ccc(NC34CC5CC(CC(C5)C3)C4)c(NC3CCCCC3)c2)n1 [CFI-4083] | > 120 min |
| CCOC(=O)c1ccc(NC2CCCCC2)c(N)c1 [Fer-1, Ferrostatin-1, reference compound] | 2.4 min |
| Nc1cc(-c2ncco2)ccc1NC1CCCCC1 [CFI-4051] | 3.2 to 3.3 min |

###

# Assay Name: PHB4082 IP, IV Study (cyclodextrin/PEG/tween vehicle)
# Type: in vivo, C57BL/6 mice
# Condition Info: both sexes, C57BL/6, mouse, brain, 10 mg/kg; IP Administration, 2 hr; read-out: [PHB4082]brain
Readout Name: concentration at 2 h (nM)

| Smiles Record | Measured Result |
| --- | --- |
| Cc1noc(-c2ccc(NC3CCCCC3)c(NC3CCCCC3)c2)n1 | 114 |

###

# Assay Name: Microsomal stability, dog (Table 1)
# Format: in vitro ADME
# Condition Info: liver microsomes; Dog: Beagle; read-out: Microsomal Stability t1/2

| Smiles Record | half-life |
| --- | --- |
| CC(C)(C)OC(=O)c1cc(N)c(NC23CC4CC(CC(C4)C2)C3)cc1Cl | > 2 h |
| Nc1cc(-c2ncco2)ccc1NC1CCCCC1 | > 2 h |

###

# Tested on: N27 rat dopaminergic cells
# Assay Name: Suppression of ferroptosis induced by RSL3 in N27 cells (CellTiter-Glo viability)
# Type: cell-based
# Condition Info: Rattus norvegicus, N27, 24 h, 20 nM RSL3, 24 hours; separate experiment II; read-out: IC50 II
pIC50: −log10 of the molar value.
Readout Name: pIC50

| Smiles Record | Readout Name | Measured Result |
| --- | --- | --- |
| Cc1noc(-c2cnc(NC3CCCC3)c(NC3CCCC3)c2)n1 | pIC50 | 8.85 |
| Cc1noc(-c2cnc(NC3CCCCC3)c(NC3CCCCC3)c2)n1 | pIC50 | 8.85 |
| CCC(CC)Nc1cc(-c2nc(C)no2)cnc1NC1CCCCC1 | pIC50 | 9.00 |

###

# Assay Name: PHB4082 IP, IV Study (cyclodextrin/PEG/tween vehicle)
# Format: in vivo, C57BL/6 mice
# Condition Info: both sexes, C57BL/6, mouse, brain and plasma, other: intraperitoneally and intravenously; 10 mg/kg intraperitoneally and intravenously

| Compound | log10 Kp (brain/plasma) |
| --- | --- |
| Cc1noc(-c2ccc(NC3CCCCC3)c(NC3CCCCC3)c2)n1 [PHB4082] | < 0 |
